Task for the reader: assign each of the following molecules its reported %-inhibition of NPM1-ALK.
# Test system: panel of more than 300 wild-type and mutant kinases (313 kinase panel)
# protocol_details: Kinase profiling in a biochemical assay panel (mobility shift assays and ELISA), %-inhibition at 1 μM; selectivity entropy
# test_settings: kinase NPM1-ALK; 1 μM
Use % as the unit, but write only the number.

# input Please report the recorded %-inhibition of NPM1-ALK for "CC(=O)Nc1cccc(-n2c(=O)n(C3CC3)c(=O)c3c(Nc4ccc(I)cc4F)n(C)c(=O)c(C)c32)c1" .
# output -1.79

# input Ok, now "CNC(=O)c1cc(Oc2ccc(NC(=O)Nc3ccc(Cl)c(C(F)(F)F)c3)c(F)c2)ccn1"
# output -7

# input Ok, now COc1cc2nccc(Oc3ccc(NC(=O)C4(C(=O)Nc5ccc(F)cc5)CC4)cc3)c2cc1OC [cabozantinib]
# output 10

# input Ok, now "CO[C@H]1C[C@@H]2CC[C@@H](C)[C@@](O)(O2)C(=O)C(=O)N2CCCC[C@H]2C(=O)O[C@H]([C@H](C)C[C@@H]2CC[C@@H](OCCO)[C@H](OC)C2)CC(=O)[C@H](C)/C=C(\C)[C@@H](O)[C@@H](OC)C(=O)[C@H](C)C[C@H](C)/C=C/C=C/C=C/1C"
# output -5.62

# input Ok, now "CO[C@H]1C[C@@H]2CC[C@@H](C)[C@@](O)(O2)C(=O)C(=O)N2CCCC[C@H]2C(=O)O[C@H]([C@H](C)C[C@@H]2CC[C@@H](OC(=O)C(C)(CO)CO)[C@H](OC)C2)CC(=O)[C@H](C)/C=C(\C)[C@@H](O)[C@@H](OC)C(=O)[C@H](C)C[C@H](C)/C=C/C=C/C=C/1C"
# output -7.57

# input Ok, now "CCCS(=O)(=O)Nc1ccc(F)c(C(=O)c2c[nH]c3ncc(-c4ccc(Cl)cc4)cc23)c1F"
# output -1.72

# input Ok, now "CC(C)(C)c1nc(-c2cccc(NS(=O)(=O)c3c(F)cccc3F)c2F)c(-c2ccnc(N)n2)s1"
# output -3

* * *

# target_under_test: panel of more than 300 wild-type and mutant kinases (313 kinase panel) (Homo sapiens)
# protocol_details: Kinase profiling in a biochemical assay panel (mobility shift assays and ELISA), %-inhibition at 1 μM; selectivity entropy
# test_settings: kinase FLT1; compound at 1 μM
Task for the reader: assign each of the following molecules its reported %-inhibition of FLT1.
Use % as the unit, but write only the number.

# input Please report the recorded %-inhibition of FLT1 for "Cc1ccc(C(=O)Nc2ccc(CN3CCN(C)CC3)c(C(F)(F)F)c2)cc1C#Cc1cnc2cccnn12" .
# output 101

# input Ok, now "CCN(CC)CCNC(=O)c1c(C)[nH]c(/C=C2\C(=O)Nc3ccc(F)cc32)c1C"
# output 98

# input Ok, now "O=S(=O)(c1cccc2cnccc12)N1CCCNCC1"
# output -0.73

# input Ok, now COc1cc2nccc(Oc3ccc(NC(=O)C4(C(=O)Nc5ccc(F)cc5)CC4)cc3)c2cc1OC [cabozantinib]
# output 99

# input Ok, now "CO[C@H]1C[C@@H]2CC[C@@H](C)[C@@](O)(O2)C(=O)C(=O)N2CCCC[C@H]2C(=O)O[C@H]([C@H](C)C[C@@H]2CC[C@@H](OCCO)[C@H](OC)C2)CC(=O)[C@H](C)/C=C(\C)[C@@H](O)[C@@H](OC)C(=O)[C@H](C)C[C@H](C)/C=C/C=C/C=C/1C"
# output -2.63

# input Ok, now "CNC(=O)c1cc(Oc2ccc(NC(=O)Nc3ccc(Cl)c(C(F)(F)F)c3)c(F)c2)ccn1"
# output 102

# input Ok, now "C[C@@H](Oc1cc(-c2cnn(C3CCNCC3)c2)cnc1N)c1c(Cl)ccc(F)c1Cl"
# output 53

# input Ok, now "CCCS(=O)(=O)Nc1ccc(F)c(C(=O)c2c[nH]c3ncc(-c4ccc(Cl)cc4)cc23)c1F"
# output 25
